- Test system: HOS
- experiment-description: Anticancer activity against human HOS cells assessed as reduction in cell viability incubated for 72 hrs by Alamar Blue assay
- Format: functional, cell-based
assay-metric: pIC50
Friendly reminder that pIC50 comes from taking -log10 of the concentration in mol/L.

Endpoint output: pIC50 of C#CCO[C@H]1C=C(C(C)C)[C@]2(CCCC(=O)O2)[C@H]2CC[C@]3(C)C(=CC(=O)O[C@H]3c3ccoc3)[C@]12C . Value?
5.79

pIC50 lookup needed for CC1(C)O[C@H]2CC(=O)OC[C@]23[C@H]2CC[C@]4(C)C(=CC(=O)O[C@H]4c4coc(C(=O)CCl)c4)[C@]2(C)OC(=O)C[C@@H]13 , thanks.
5.41

----------
- Tested on: Plasmodium falciparum
- experiment-description: Antiplasmodial activity against Plasmodium falciparum W2 infected in human erythrocytes assessed as reduction in parasite growth incubated for 48 hrs by YOYO-1 dye based flow cytometric analysis
- Format: functional, organism-based
- test-parameters: W2, 48 h
Give measured IC50 for each item. Keep answers brief.

Requested read-out: IC50. Entry: CC(=O)O[C@H]1CC(=O)OC(C)(C)[C@@H]2C[C@@H](OC(C)=O)[C@]3(C)[C@H](CC[C@@]4(C)[C@H](c5ccoc5)OC(=O)[C@H]5O[C@@]534)[C@@]12C
16.5 µM

State the recorded IC50 for this entry: COC(=O)C[C@H](OC(C)=O)[C@]1(C)[C@H]2CC[C@@]3(C)[C@H](c4ccoc4)OC(=O)[C@H]4O[C@]43[C@]2(C)[C@H](OC(C)=O)C[C@H]1C(C)(C)O
18.3 µM
